- Method description: NCI Yeast Anticancer Drug Screen. Data for the rad50 strain (AID 155);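 also: 0% = growth of vehicle-only cultures of the same strain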
- Condition set: S. cerevisiae rad50 strain growth inhibition; at 50.0 µM; hits give high values
Compounds without any hit were thinned out: in the full panel of roughly 79,000, 15% have a hit.
Listed here are compounds together with their documented growth inhibition.
Readout name: growth inhibition (%)

                                   compound       readout_name  uom  data_value
0    O=C(Nc1c(Cl)cccc1Cl)OCCOc1ccc(Cl)cc1Cl  growth inhibition    %        88.5
1           CC(=O)c1c(C)n(C)c2c1nnc1ccccc12  growth inhibition    %        92.3
2  C=C1C(=O)OC2C1CC1OC2C(C)CCC/C(C)=C\CCC1(C)O (stereo not given)  growth inhibition    %        92.5
3  COc1cccc(CC2N(S(=O)(=O)c3ccc(C)cc3)CCC23C(=O)Nc2ccccc23)c1OC (stereo not given)  growth inhibition    %        91.8
4                     CCN(CC)c1ccc(SC#N)cc1  growth inhibition    %        91.2
